Measured Ratio IC50 by item
- assay_comment: Selectivity ratio of IC50 for electric eel AChE to IC50 for equine serum BCHE
Enter a number only.

Solved entries (count: 3):
INSERT INTO results (molecule, experimental_result) VALUES
  ('CN(C)CCCC1(c2ccc(F)cc2)OCc2cc(C(=O)NNC(=O)c3ccccc3F)ccc21 (configuration not stated)', 1.55),
  ('CN(C)CCCC1(c2ccc(F)cc2)OCc2cc(C(=O)NNC(=O)c3ccccc3[N+](=O)[O-])ccc21 (configuration not stated)', 3.35),
  ('CN(C)CCCC1(c2ccc(F)cc2)OCc2cc(C(=O)NNC(=O)c3cccc(Br)c3)ccc21 (configuration not stated)', 0.88);

Record CN(C)CCCC1(c2ccc(F)cc2)OCc2cc(C(=O)NNC(=O)c3ccccc3Cl)ccc21 (configuration not stated) . Reported Ratio IC50: 1.67

Record CN(C)CCCC1(c2ccc(F)cc2)OCc2cc(C(=O)NNC(=O)c3ccc(F)cc3)ccc21 (configuration not stated) . Reported Ratio IC50: 0.63

Record CN(C)CCCC1(c2ccc(F)cc2)OCc2cc(C(=O)NNC(=O)c3ccc(O)cc3)ccc21 (configuration not stated) . Reported Ratio IC50: 0.61

Record CN(C)CCCC1(c2ccc(F)cc2)OCc2cc(C(=O)NNC(=O)c3ccccc3N)ccc21 (configuration not stated) . Reported Ratio IC50: 1.72
